Where do these numbers come from? They come from ChEMBL document CHEMBL1131368.

- EXPERIMENTAL_TARGET: Endothelin-converting enzyme 1 (Homo sapiens)
- Sequence (P42892 whole entry): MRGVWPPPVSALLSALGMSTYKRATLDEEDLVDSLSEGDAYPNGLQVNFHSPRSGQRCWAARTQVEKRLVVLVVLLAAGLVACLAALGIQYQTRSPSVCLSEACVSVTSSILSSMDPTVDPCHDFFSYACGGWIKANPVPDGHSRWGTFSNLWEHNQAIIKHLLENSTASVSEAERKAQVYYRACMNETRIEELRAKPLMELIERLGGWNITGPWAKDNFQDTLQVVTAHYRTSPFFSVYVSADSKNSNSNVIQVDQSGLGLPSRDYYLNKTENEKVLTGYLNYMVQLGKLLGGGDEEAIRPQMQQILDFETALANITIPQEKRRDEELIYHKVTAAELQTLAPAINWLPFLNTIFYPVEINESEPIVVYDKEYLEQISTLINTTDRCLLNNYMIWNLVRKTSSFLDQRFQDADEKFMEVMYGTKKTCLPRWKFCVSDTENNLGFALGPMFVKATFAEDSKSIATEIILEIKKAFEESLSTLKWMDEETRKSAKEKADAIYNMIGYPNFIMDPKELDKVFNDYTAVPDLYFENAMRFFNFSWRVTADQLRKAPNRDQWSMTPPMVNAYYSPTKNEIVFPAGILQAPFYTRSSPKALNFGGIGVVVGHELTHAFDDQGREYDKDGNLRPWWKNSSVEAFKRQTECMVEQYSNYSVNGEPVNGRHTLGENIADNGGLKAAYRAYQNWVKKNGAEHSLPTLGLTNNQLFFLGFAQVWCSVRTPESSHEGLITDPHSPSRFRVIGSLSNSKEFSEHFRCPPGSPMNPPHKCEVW
- ASSAY_OVERVIEW: Inhibition of human recombinant Endothelin-converting enzyme 1.
MEASURED_ENDPOINT: IC50

Answered examples (2):
Fill in IC50 for COc1cc(C(=O)O)nc(-c2cccn2C)c1OC tested with Endothelin-converting enzyme 1 (Homo sapiens).
> 50 µM

Please look at COc1cc(C(=O)O)nc(-c2ccsc2)c1OC and tell me its recorded IC50 on Endothelin-converting enzyme 1 (Homo sapiens).
> 50 µM

Others:
Provide IC50, system Endothelin-converting enzyme 1 (Homo sapiens), entry COc1cc(C(=O)O)nc(-c2ccoc2)c1OC
> 50 µM
